test system: HT-29; experiment: Cytotoxicity against HT29 cells in presence of Escherichia coli nitroreductase; type: functional, cell-based; conditions: Homo sapiens
measuredParameter: IC50 (nM)

[[record]]
molecule = "O=[N+]([O-])c1ccc(C2Nc3ccc4cc5ccccc5nc4c3CO2)cc1 (stereo unspecified)"
measuredparameter = "IC50"
experimentalresult = 200


FYI, the data here is from ChEMBL document CHEMBL1148685.
